Target: NTCP (recombinant His-tagged human NTCP; hNTCP) (Homo sapiens)
Sequence (Q14973 whole entry): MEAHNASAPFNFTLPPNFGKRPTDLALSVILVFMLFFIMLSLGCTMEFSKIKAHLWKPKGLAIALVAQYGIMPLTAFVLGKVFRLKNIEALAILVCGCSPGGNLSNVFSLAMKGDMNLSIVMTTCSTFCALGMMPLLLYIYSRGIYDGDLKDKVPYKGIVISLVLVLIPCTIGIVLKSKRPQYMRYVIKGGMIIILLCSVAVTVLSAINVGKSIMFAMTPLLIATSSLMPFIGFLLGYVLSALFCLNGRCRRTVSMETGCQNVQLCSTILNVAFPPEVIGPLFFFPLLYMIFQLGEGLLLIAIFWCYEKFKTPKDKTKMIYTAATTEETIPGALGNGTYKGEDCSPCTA
Assay: inhibition of FITC-preS1-myr binding to Huh7D-hNTCP cells, high-content imaging
Recorded metric: IC50

Cc1cc(-c2ccc(/N=N/c3ccc4c(S(=O)(=O)O)cc(S(=O)(=O)O)c(N)c4c3O)c(C)c2)ccc1/N=N/c1ccc2c(S(=O)(=O)O)cc(S(=O)(=O)O)c(N)c2c1O [Evans blue] :: ~5 µM

* * *

Target: NTCP (recombinant His-tagged human NTCP; hNTCP) (Homo sapiens)
Test: biolayer interferometry (Octet RED)
pKd: −log10 of the molar value.
Recorded metric: pKd

Cc1cc(-c2ccc(/N=N/c3ccc4c(S(=O)(=O)O)cc(S(=O)(=O)O)c(N)c4c3O)c(C)c2)ccc1/N=N/c1ccc2c(S(=O)(=O)O)cc(S(=O)(=O)O)c(N)c2c1O :: 7.05
